Target: 2-5A-dependent ribonuclease (Homo sapiens) (UniProt Q05823)
Sequence (Q05823 whole entry, the tested form may be a part): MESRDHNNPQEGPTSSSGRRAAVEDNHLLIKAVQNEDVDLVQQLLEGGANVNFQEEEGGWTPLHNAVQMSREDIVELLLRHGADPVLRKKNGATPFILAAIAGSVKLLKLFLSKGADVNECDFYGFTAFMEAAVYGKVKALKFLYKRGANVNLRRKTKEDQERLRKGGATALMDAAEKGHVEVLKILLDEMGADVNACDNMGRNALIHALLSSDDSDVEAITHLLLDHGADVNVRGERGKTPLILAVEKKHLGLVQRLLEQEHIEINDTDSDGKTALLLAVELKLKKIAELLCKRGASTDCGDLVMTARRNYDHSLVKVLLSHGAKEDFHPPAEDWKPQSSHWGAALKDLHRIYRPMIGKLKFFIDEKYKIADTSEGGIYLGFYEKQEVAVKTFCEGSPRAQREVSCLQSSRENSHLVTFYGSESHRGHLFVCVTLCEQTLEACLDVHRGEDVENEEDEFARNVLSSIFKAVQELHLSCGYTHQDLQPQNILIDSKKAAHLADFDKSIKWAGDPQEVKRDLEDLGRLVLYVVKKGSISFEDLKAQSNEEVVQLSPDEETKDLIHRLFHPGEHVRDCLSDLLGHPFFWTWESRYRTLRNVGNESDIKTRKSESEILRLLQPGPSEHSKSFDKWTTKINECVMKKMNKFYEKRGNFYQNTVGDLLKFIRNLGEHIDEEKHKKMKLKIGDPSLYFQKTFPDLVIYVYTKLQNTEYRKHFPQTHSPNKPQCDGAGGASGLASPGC
Assay: […] of human RNaseL ANK domain expressed in Escherichia col assessed as 5' flurescein-r(C11U2C7)-3' RNA cleavage relative to control
Set-up: concentration or dose not given beside the values
observable: Activity (%)
Your answer should be a plain number; it is taken to be in %.

1. Cc1nc2c(N)ncnc2n1[C@@H]1O[C@H](COP(=O)(O)O[C@@H]2[C@H](O)[C@@H](COP(=O)(O)O[C@@H]3[C@H](O)[C@@H](COP(=O)(O)O[C@@H]4[C@H](O)[C@@H](CO)O[C@H]4n4cnc5c(N)ncnc54)O[C@H]3n3cnc4c(N)ncnc43)O[C@H]2n2cnc3c(N)ncnc32)[C@@H](O)[C@H]1O ... 3.9
2. Nc1ncnc2c1ncn2[C@@H]1O[C@H](COP(=O)(O)O[C@@H]2[C@H](O)[C@@H](COP(=O)(O)O[C@@H]3[C@H](O)[C@@H](COP(=O)(O)O[C@@H]4[C@H](O)[C@@H](COP(=O)(O)O)O[C@H]4n4cnc5c(N)ncnc54)O[C@H]3n3cnc4c(N)ncnc43)O[C@H]2n2cnc3c(N)ncnc32)[C@@H](O)[C@H]1O ... 1

Could you now consider this next molecule?
Form field Activity for item Cc1nc2c(N)ncnc2n1[C@@H]1O[C@H](COP(=O)(O)O[C@@H]2[C@H](O)[C@@H](COP(=O)(O)O[C@@H]3[C@H](O)[C@@H](COP(=O)(O)O[C@@H]4[C@H](O)[C@@H](COP(=O)(O)O)O[C@H]4n4cnc5c(N)ncnc54)O[C@H]3n3cnc4c(N)ncnc43)O[C@H]2n2cnc3c(N)ncnc32)[C@@H](O)[C@H]1O on 2-5A-dependent ribonuclease (Homo sapiens) (UniProt Q05823): 3.9

###

Assay: Stability assessed as half life
Format: physicochemical
observable: half-life (min)
Give just the number in min; leave the unit off.

Kindly note the recorded half-life for Nc1ncnc2c1ncn2[C@@H]1O[C@H](COP(=O)(O)O[C@@H]2[C@H](O)[C@@H](COP(=O)(O)O[C@@H]3[C@H](O)[C@@H](COP(=O)(O)O[C@@H]4[C@H](O)[C@@H](CO)O[C@H]4n4cnc5c(N)ncnc54)O[C@H]3n3cnc4c(N)ncnc43)O[C@H]2n2cnc3c(N)ncnc32)[C@@H](O)[C@H]1O , which is 18

###

Experiment: Stability assessed as half life
Type: physicochemical
observable: half-life (min)
Please give a number only; it is taken to be in min.

Some solved cases for reference:
1) Cc1nc2c(N)ncnc2n1[C@@H]1O[C@H](COP(=O)(O)O[C@@H]2[C@H](O)[C@@H](COP(=O)(O)O[C@@H]3[C@H](O)[C@@H](CO)O[C@H]3n3cnc4c(N)ncnc43)O[C@H]2n2cnc3c(N)ncnc32)[C@@H](O)[C@H]1OP(=O)(O)OC[C@H]1O[C@@H](n2cnc3c(N)ncnc32)[C@H](O)[C@@H]1O ... 18
2) Nc1ncnc2c1ncn2[C@@H]1O[C@H](COP(=O)(O)O[C@@H]2[C@H](O)[C@@H](COP(=O)(O)O[C@@H]3[C@H](O)[C@@H](COP(=O)(O)O[C@@H]4[C@H](O)[C@@H](COP(=O)(O)O)O[C@H]4n4cnc5c(N)ncnc54)O[C@H]3n3cnc4c(N)ncnc43)O[C@H]2n2cnc3c(N)ncnc32)[C@@H](O)[C@H]1O ... 14

Per the records, this compound ( Cc1nc2c(N)ncnc2n1[C@@H]1O[C@H](COP(=O)(O)O[C@@H]2[C@H](O)[C@@H](COP(=O)(O)O[C@@H]3[C@H](O)[C@@H](CO)O[C@H]3n3cnc4c(N)ncnc43)O[C@H]2n2cnc3c(N)ncnc32)[C@@H](O)[C@H]1O ) has half-life equal to 18
